- Test system: L1210 leukemia ip in BDF1 mice, survival T/C
- test_protocol: NCI In Vivo Anticancer Drug Screen. Data for tumor model L1210 Leukemia (intraperitoneal) in B6D2F1 (BDF1) mice
- protocol_conditions: endpoint: mean survival time; dose: 400.0 mg/kg/injection; schedule: Q01DX001 (ip); vehicle: saline; higher = longer survival
Inconclusive results and toxic doses are left out.
The following compounds are shown together with reported T/C values.

Consider the worked cases shown below.
- S=P(Nc1ccccc1)(Nc1ccccc1)Oc1cc(Cl)c(Cl)cc1Cl: 92 % of control
- CN(C=O)c1ccc(C(=O)NC(CC(=O)O)CC(=O)O)cc1: 103 % of control

Input line: Reported T/C, compound `O=C1/C=C2/C=CC=CN2C(=O)/C=C2/C=CC=CN12` : ____
Output line: 97 % of control

Input line: Reported T/C, compound `O=C1CCc2cc([N+](=O)[O-])ccc2O1` : ____
Output line: 103 % of control

Input line: Reported T/C, compound CS(=O)(=O)NCC1OC(n2cnc3c(N)ncnc32)C(O)C1O (stereo unspecified) : ____
Output line: 98 % of control

Input line: Reported T/C, compound O=C(OCc1ccccc1)C1CCCN1Cc1ccc2c(c1)OCO2 (stereo unspecified) : ____
Output line: 96 % of control

* * *

- Test system: L1210 leukemia ip in BDF1 mice, survival T/C
- test_protocol: NCI In Vivo Anticancer Drug Screen. Data for tumor model L1210 Leukemia (intraperitoneal) in B6D2F1 (BDF1) mice
- protocol_conditions: endpoint: mean survival time; dose: 200.0 mg/kg/injection; schedule: Q01DX001 (ip); vehicle: saline; higher = longer survival
Toxic doses and inconclusive results are not listed.
The following molecules are shown together with reported T/C values.

Consider the worked cases shown below.
• O=S(=O)(O)CC1(CS(=O)(=O)O)COC1 = 95 % of control
• OB1OB(OB2OB(O)O2)O1 = 108 % of control
• Nc1ccc(Cl)nc1 = 102 % of control

Input line: Reported T/C, molecule `Nc1ccc(S(=O)(=O)Nc2ccc([N+](=O)[O-])cn2)cc1` : ____
Output line: 104 % of control

Input line: Reported T/C, molecule O=C1CCN(C2CC(O)C(CO)C2)C(=O)N1 (stereo not drawn) : ____
Output line: 95 % of control

Input line: Reported T/C, molecule CSc1ccc(C(CNC(C)=O)C(C#N)C#N)cc1 (stereo not drawn) : ____
Output line: 103 % of control

Input line: Reported T/C, molecule `CC(=O)N[Si](C)(C)C` : ____
Output line: 100 % of control

Input line: Reported T/C, molecule N#CC1C(=O)NC(=O)C(C#N)C12CCCCC2 (stereo not drawn) : ____
Output line: 106 % of control

Input line: Reported T/C, molecule CC(=O)OC1CCC(=O)C2C(C(=O)O)CCCC12 (stereo not drawn) : ____
Output line: 103 % of control

Input line: Reported T/C, molecule CCOC(=O)C1=NC(c2ccccc2)N(c2ccccc2)C1c1ccccc1 (stereo not drawn) : ____
Output line: 100 % of control

Input line: Reported T/C, molecule `Cn1ncc2c(NCc3ccccc3)ncnc21` : ____
Output line: 110 % of control

Input line: Reported T/C, molecule CNC(=O)NC1CCC(C)CC1 (stereo not drawn) : ____
Output line: 95 % of control

Input line: Reported T/C, molecule O=C(O)C1CC12c1ccccc1-c1ccccc12 (stereo not drawn) : ____
Output line: 95 % of control

Input line: Reported T/C, molecule Cc1ccc(NC(=O)N(O)C2CCCCC2C#N)cc1 (stereo not drawn) : ____
Output line: 96 % of control

Input line: Reported T/C, molecule `CCOC(OCC)c1ccccc1` : ____
Output line: 109 % of control

Input line: Reported T/C, molecule `O=C(OCCOc1ccccc1)c1ccc([N+](=O)[O-])cc1` : ____
Output line: 98 % of control

Input line: Reported T/C, molecule `N#CC(C#N)=C(c1ccccc1)C1CCCCC1` : ____
Output line: 94 % of control
